Residues, ends and D or L forms follow the SMILES beside them. *: point of attachment. Boc = CC(C)(C)OC(=O)*; NHNH2 = NN*
observation_type: melting point

>>> observed_value("CCOC(=O)C=Cc1ccc(C#N)cc1")
"71 °C"

Problem: Entry C[C@@H]1CC(C)(C)C[C@@]2(C1)[C@@H](C)CC(=O)[C@]2(C)O (relative stereo) has what melting point?
Result: 73 to 74 °C

Problem: Entry CC(C)CC(NC(=O)OC(C)(C)C)C(=O)NCC(=O)NCC(=O)NC(C)C(=O)NCC(=O)NN (stereo not given) (Boc-LGGAG-NHNH2; configuration not given here) has what melting point?
Result: 174 to 176 °C

Problem: Entry CN(C)C1N(C)C(=O)NC(=O)N1c1cc(OCc2ccccc2)c(Cl)cc1F (stereo not given) has what melting point?
Result: 193 to 194 °C

Problem: Entry C[C@H](COS(C)(=O)=O)NC(=O)OC(C)(C)C has what melting point?
Result: 65 to 68 °C

Problem: Entry CCOC(=O)CC(c1ccccc1)(c1ccccc1)c1ncc[nH]1 has what melting point?
Result: 75 °C

Problem: Entry O=C1c2ccccc2C(c2ccc(O)cc2)(c2ccc(O)cc2)c2ccccc21 has what melting point?
Result: 320 to 322 °C

Problem: Entry CC(C)CC1CCN(CCc2ccccc2)C1=O (stereo not given) has what melting point?
Result: 69 to 71 °C

Problem: Entry Cc1ccc(C(O)=S)cn1 has what melting point?
Result: 186 to 188 °C

Problem: Entry CC(C)(C)CN1C(=O)C(=O)N(c2ccc(C#N)cc2)C1=S has what melting point?
Result: 128 to 129 °C

* * *

Entries and their melting point values follow.

Solved cases (4 shown):
>>> observed_value("COc1ccc(C=O)cc1OC(=O)c1ccccc1")
"70 to 72 °C"
>>> observed_value("COc1ccc(C2Cc3[nH]c4ccccc4c3C2)cc1 (stereo not given)")
"106 to 109 °C"
>>> observed_value("CN(C)C=NS(=O)(=O)c1c2c(O)cccc2nn1C")
"118 to 119 °C"
>>> observed_value("Cn1c(C(F)(F)F)cc2ccccc21")
"28 to 32 °C"

Problem: Entry CC(C)(C)OC(=O)NC(Cc1ccccc1)C(O)CNCC(O)C(Cc1ccccc1)NC(=O)SC(C)(C)C (stereo not given) has what melting point?
Result: 140 to 141 °C

Problem: Entry Cn1nc2c(N)nc3c(c2c1CCCCNC(=O)N1CCOCC1)CCCC3 has what melting point?
Result: 95 °C

Problem: Entry CN1CCC(OC2c3ccccc3C(=O)N2c2ccc3ccc(Cl)nc3n2)CC1 (stereo not given) has what melting point?
Result: 204 °C

Problem: Entry CC1(C)OCCC(NC(=O)c2cnccc2C(F)(F)F)O1 (stereo not given) has what melting point?
Result: 155 to 156 °C

Problem: Entry N#Cc1ccc(N2C(=O)[C@@H]3[C@H](O)CCN3C2=O)c2ccccc12 (relative stereo) has what melting point?
Result: 224 to 225 °C

Problem: Entry O=C(O)c1oc(-c2ccccc2Cl)cc(=O)c1Br has what melting point?
Result: 205 to 207 °C

* * *

observation_type: melting point

>>> observed_value("ClCc1nc2cc(Br)ccc2o1")
"63 to 65 °C"
>>> observed_value("Cc1cc2c(=O)n(CCN3CCC(Nc4nc5ccccc5n4Cc4ccc(F)cc4)CC3)c(=O)[nH]c2s1")
"188 °C"

Alright, here's another molecule for you.
Problem: Entry COC(=NC(=O)Nc1ccc(OC(F)(F)F)cc1)c1ccccc1Cl has what melting point?
Result: 148 to 149 °C

* * *

Entries and their melting point values follow.

Solved cases (4 shown):
>>> observed_value("Cc1sc(NS(=O)(=O)c2cccc(Cl)c2C)nc1CC(=O)N1CCOCC1")
"194 to 195 °C"
>>> observed_value("COc1ccccc1Cc1n[nH]c2c1c(=O)n(-c1ccccc1)c1ncccc21")
"276 to 277 °C"
>>> observed_value("Cc1cc(Cl)ccc1OCC(=O)N1Cc2ccc(C(=O)c3ccc(Cl)cc3)n2Cc2ccccc21")
"175 to 176 °C"
>>> observed_value("CCOC(=O)C(=O)CC(=O)/C=C/c1ccc(Cl)cc1F")
"84 to 85 °C"

Problem: Entry C=C(CN1c2ccccc2Sc2ccc(Cl)cc21)c1ccc(C(=O)Nc2ccccc2N)cc1 has what melting point?
Result: 126 to 128 °C

Problem: Entry CN(C)C(=O)C=CC(=O)N(C)C has what melting point?
Result: 130 to 131 °C

Problem: Entry CCCc1cccnc1N(C)C1CCN(C(=O)c2ccc[nH]2)CC1 has what melting point?
Result: 88 to 90 °C

Problem: Entry O=C(O)c1c(Sc2ccccc2)c2ccccc2n1-c1ccc2c(c1)OCO2 has what melting point?
Result: 182 to 183 °C

Problem: Entry NC(=O)c1ccc(OC(F)(F)F)c(Cl)c1 has what melting point?
Result: 98 °C

Problem: Entry COC(=O)c1cccc2nc(OC)n(Cc3ccc(-c4ccccc4-c4nc(=O)o[nH]4)cc3)c12 has what melting point?
Result: 215 to 216 °C

* * *

Entries and their melting point values follow.
# number only, unit °C dropped from output

>>> observed_value("CC(C)(C)OC(=O)NCC1CCN(CC2(C(=O)O)CCC2)CC1")
160

Alright, here's another molecule for you.
Problem: Entry Oc1ccc2c(c1)SCCc1c-2n(CCCCCN2CCCCC2)c2ccccc12 has what melting point?
Result: 130

* * *

Entries and their melting point values follow.

Solved cases (9 shown):
>>> observed_value("O=C(O)C(=O)c1ccc(OCC(=O)c2cccc3ccccc23)cc1")
"141 to 143 °C"
>>> observed_value("CCOC(=O)c1cn(-c2ccccc2)c2oc(CN3CCOCC3)cc2c1=O")
"210 to 212 °C"
>>> observed_value("O=C(NC(=O)c1c(F)cccc1Cl)Nc1cnc(Oc2ccc(Cl)c3c2CCCC3)c(Cl)c1")
"244 °C"
>>> observed_value("Cc1cc(C(=O)OC2CC(C)(C)NC(C)(C)C2)c(C)o1")
"59 to 61 °C"
>>> observed_value("CC(=O)Nc1cc2c(cc1[N+](=O)[O-])[C@@H](NC(C)=O)[C@H](O)C(C)(C)O2 (relative stereo)")
"256 to 259 °C"
>>> observed_value("N#CCOc1ccc(O)c([N+](=O)[O-])c1")
"113 to 114 °C"
>>> observed_value("CCC(C)c1ccccc1Sc1c(O)cc(-c2ccccc2)oc1=O (stereo not given)")
"170 to 171 °C"
>>> observed_value("OCc1ccc2c(c1)C(C(Cl)(Cl)Cl)OC(C(Cl)(Cl)Cl)O2 (stereo not given)")
"134 to 136 °C"
>>> observed_value("COC(=O)c1cc(I)cc2c1Nc1ccccc1C2")
"148 to 150 °C"

Alright, here's another compound for you.
Problem: Entry O=C1C=C(Cc2ccccc2)CC1 has what melting point?
Result: 32 to 33 °C

* * *

Entries and their melting point values follow.

Solved cases (6 shown):
>>> observed_value("OCCCc1cn(C(c2ccccc2)(c2ccccc2)c2ccccc2)cn1")
"130 °C"
>>> observed_value("O=C(NCc1ccccn1)c1ccc2cnccc2n1")
"123 to 125 °C"
>>> observed_value("CCOc1c(SC(F)(F)F)c(C#N)nn1-c1c(Cl)cc(C(F)(F)F)cc1Cl")
"106 °C"
>>> observed_value("Cn1cc(Oc2cccc(Cl)c2Cl)c(=O)c(-c2cccc(C(F)(F)F)c2)c1")
"200 to 202 °C"
>>> observed_value("O=c1ccn(CCO)c(C(O)c2ccccc2)c1O (stereo unspecified)")
"198 to 200 °C"
>>> observed_value("Nc1ccn(C2COC(CO)C2O)c(=O)n1 (stereo unspecified)")
"235 °C"

Problem: Entry O=C(c1ccc([N+](=O)[O-])cc1)N1CCCCc2ncccc21 has what melting point?
Result: 231 to 233 °C

Problem: Entry CC(C)c1ccc(NC=CS(=O)(=O)F)cc1 has what melting point?
Result: 41 to 43 °C

Problem: Entry Cc1c(Cl)ccc(S(C)(=O)=O)c1Cl has what melting point?
Result: 125 to 127 °C

Problem: Entry CCOC(=O)c1cc(O)cc(C(=O)OCC)c1 has what melting point?
Result: 106 °C

Problem: Entry COc1ccc2c(c1)Oc1c(ccc(OC)c1C=O)C2(C)C has what melting point?
Result: 84.5 to 86 °C

* * *

observation_type: melting point

>>> observed_value("Cc1ccc(O)c(Cn2c(N)nc3ccc(CNc4cccc(OC(F)(F)F)c4)cc32)n1")
"156 °C"
>>> observed_value("O=C(O)Cc1ccc(Br)c(O)c1Br")
"186 °C"

Problem: Entry CCC(C)C=C(C(=O)c1ccc(Cl)cc1Cl)n1cncn1 (stereo not given) has what melting point?
Result: 101 to 104 °C

Problem: Entry O=C1CCC(c2ccccc2)(N2CCCCC2)CC1 has what melting point?
Result: 116 to 117 °C

Problem: Entry Cc1ccc(Cc2cnc(NCCCNc3ncc(Br)cc3C)[nH]c2=O)cn1 has what melting point?
Result: 48 to 51 °C

Problem: Entry O=C(Nc1ccc(OCCN2CCOCC2)c2ccccc12)c1cccc(N2CCCCC2)c1 has what melting point?
Result: 147 to 148 °C

Problem: Entry CCn1c(=O)c(-n2c(C(N)=O)nnc2-c2ccc(C#N)cc2)c(C)n(-c2cccc(C(F)(F)F)c2)c1=O has what melting point?
Result: 256 °C

Problem: Entry COc1c(C(C)(C)C)cc(N2CCCC2=O)cc1C(C)(C)C has what melting point?
Result: 90 to 91 °C

Problem: Entry CCOC(=O)COc1ccc(S(=O)(=O)CCNS(=O)(=O)c2ccccc2)cc1 has what melting point?
Result: 86.5 to 88 °C

Problem: Entry O=C(NC(NC(=S)Nc1ccccc1F)C(F)(F)F)c1ccc(Cl)cc1 (stereo not given) has what melting point?
Result: 197 to 200 °C

The reported numbers originate from a melting point compilation (Tetko et al.; mined from patent text by program, amines drawn as free bases though some values may be those of a salt).
